pKi: −log10 of the molar value.
A short record of pKi observed with Sodium-dependent dopamine transporter (Rattus norvegicus, UniProt P23977) follows.
Sequence (P23977 whole entry): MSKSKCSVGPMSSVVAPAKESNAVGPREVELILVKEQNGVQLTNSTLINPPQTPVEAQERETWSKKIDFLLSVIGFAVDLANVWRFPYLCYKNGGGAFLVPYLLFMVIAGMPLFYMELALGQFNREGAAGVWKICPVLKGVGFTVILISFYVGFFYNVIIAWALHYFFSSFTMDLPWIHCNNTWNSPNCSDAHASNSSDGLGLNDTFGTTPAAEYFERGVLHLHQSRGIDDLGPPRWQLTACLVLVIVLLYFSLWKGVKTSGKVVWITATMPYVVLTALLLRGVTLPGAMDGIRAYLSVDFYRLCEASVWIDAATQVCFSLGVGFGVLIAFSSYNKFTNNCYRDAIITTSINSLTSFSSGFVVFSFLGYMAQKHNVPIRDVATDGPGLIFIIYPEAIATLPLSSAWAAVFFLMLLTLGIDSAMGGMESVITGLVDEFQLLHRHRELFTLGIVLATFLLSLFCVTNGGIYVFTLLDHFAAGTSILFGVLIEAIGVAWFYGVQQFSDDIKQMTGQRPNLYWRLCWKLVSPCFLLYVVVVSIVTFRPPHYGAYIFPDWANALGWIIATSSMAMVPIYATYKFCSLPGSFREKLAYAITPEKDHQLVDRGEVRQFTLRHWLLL
MEASURE_NAME: pKi

- CN1C2CCCC1C(C(=O)c1ccccc1)C(c1ccccc1)C2 (stereo in doubt; 13): 5.40
- CN1C2CCCC1C(C(=O)c1ccccc1)C(c1ccccc1)C2 (stereo in doubt; 14): 5.72
- COC(=O)[C@@H]1C2CC[C@H](C[C@@H]1c1ccccc1)N2C: 6.51

Data provenance is ChEMBL document CHEMBL1129411.
